system-under-test: T1, full-length Ubl4a H106E mutant, recombinant (Homo sapiens, UniProt P11441 1-157, H106E)
T1 construct: Ubl4a, Homo sapiens, 157 amino acids, with H106E; also called H106E Ubl4a; source: recombinant
T1 sequence (looked up): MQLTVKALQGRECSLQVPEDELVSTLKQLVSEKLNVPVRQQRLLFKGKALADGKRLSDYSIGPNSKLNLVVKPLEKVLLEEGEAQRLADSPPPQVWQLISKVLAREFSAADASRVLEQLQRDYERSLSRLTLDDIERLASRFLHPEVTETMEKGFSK
run-description: SPR; BAGS domain (residues 1048-1123) immobilised on a CM5 chip by amine coupling; wild-type and mutant Ubl4a as analytes; 298 K; HBS-P (10 mM HEPES, 150 mM NaCl, 0.05% Surfactant P20, pH 7.2); 30 μl/min; two-state reaction model, overall dissociation constant
applied-conditions: both partners purified

>  <binder>
BAG6 BAGS domain (residues 1048–1123) (domain or fragment, human, UniProt P46379-2 1048-1123, looked up, BAG6, C-terminal BAGS domain, residues 1048-1123; printed length of BAG6 1,126 residues; Removal of GST is told for the crystallised complex; also called BAG6(1048–1123)) MQGEGPQLLLSEAVSRAAKAAGARPLTSPESLSRDLEAPEVQESYRQQLRSDIQKRLQEDPNYSPQRFPNAQRAFA

>  <Kd / nM>
1600

$$$$
